- Organism: Homo sapiens
- Method summary: Ratio of IC50 for human eNOS to EC50 for human iNOS
Measured endpoint: Ratio EC50

**Q:** Entry under review: "O=c1cc(Cn2c(C3CCC3)nc3cnccc32)c2ccc(F)c(F)c2[nH]1" . Reported Ratio EC50?
**A:** 1.2

**Q:** What do we get for "O=c1cc(Cn2c(C3CCCC3)nc3ccccc32)c2ccc(F)c(F)c2[nH]1" ?
**A:** > 133

**Q:** What do we get for "CC(C)(C)c1nc2ccccc2n1Cc1cc(=O)[nH]c2c(F)c(F)ccc12" ?
**A:** > 2

**Q:** What do we get for "O=c1cc(Cn2c(C3CCC3)nc3ncccc32)c2ccc(F)c(F)c2[nH]1" ?
**A:** 15

**Q:** What do we get for "O=c1cc(Cn2c(-c3cccnc3)nc3ccccc32)c2ccc(F)c(F)c2[nH]1" ?
**A:** > 11

**Q:** What do we get for "CN(C)c1ccnc2c1nc(C1CCC1)n2Cc1cc(=O)[nH]c2c(F)c(F)ccc12" ?
**A:** > 590

**Q:** What do we get for "CCCc1nc2ccccc2n1Cc1cc(=O)[nH]c2c(F)c(F)ccc12" ?
**A:** 1.8

**Q:** What do we get for "CC(C)Cc1nc2nccnc2n1Cc1cc(=O)[nH]c2c(F)cccc12" ?
**A:** > 350

**Q:** What do we get for "O=c1cc(Cn2c(C3CCCC3)nc3nccnc32)c2ccc(F)c(F)c2[nH]1" ?
**A:** > 360

**Q:** What do we get for "O=c1cc(Cn2c(CC3CC3)nc3ccccc32)c2ccc(F)c(F)c2[nH]1" ?
**A:** 6.5

====

Measured t1/2 accompanies every entry in the list below.
- System: Liver
- Method summary: Half life in mouse liver microsomes assessed as formation of oxidation product and glucuronide conjugate
- Assay type: ADME, Microsome

O=c1cc(Cn2c(C3CCC3)nc3nccnc32)c2ccc(F)c(F)c2[nH]1; > 2 h
CC(C)c1nc2nccnc2n1Cc1cc(=O)[nH]c2c(F)c(F)ccc12; > 2 h
O=c1cc(Cn2c(C3CCC3)nc3c(Cl)ccnc32)c2ccc(F)c(F)c2[nH]1; 0.6 h

**Q:** Entry under review: "O=c1cc(Cn2c(C3CC3)nc3ccccc32)c2ccc(F)c(F)c2[nH]1" . Reported t1/2?
**A:** > 2 h

**Q:** What do we get for "CCCc1nc2ccccc2n1Cc1cc(=O)[nH]c2c(F)c(F)ccc12" ?
**A:** > 2 h

**Q:** What do we get for "O=c1cc(Cn2c(CC3CCCC3)nc3ccccc32)c2ccc(F)c(F)c2[nH]1" ?
**A:** > 2 h

**Q:** What do we get for "O=c1cc(Cn2c(C3CCCC3)nc3nccnc32)c2ccc(F)c(F)c2[nH]1" ?
**A:** > 2 h

**Q:** What do we get for "O=c1cc(Cn2c(-c3ccncc3)nc3ccccc32)c2ccc(F)c(F)c2[nH]1" ?
**A:** 1.07 h

**Q:** What do we get for "O=c1cc(Cn2c(C3CCC3)nc3ccccc32)c2ccc(F)c(F)c2[nH]1" ?
**A:** > 2 h

**Q:** What do we get for "O=c1cc(Cn2c(CC3CCC3)nc3ccccc32)c2ccc(F)c(F)c2[nH]1" ?
**A:** 0.467 h

====

- Method summary: Plasma clearance in mouse at 3 mg/kg, iv and 10 mg/kg, po
- Type: ADME, organism-based
Measured endpoint: clearance (mL/min/kg)
Give just the numeric value; mL/min/kg need not be written.

CC(C)Cc1nc2ccccc2n1Cc1cc(=O)[nH]c2c(F)c(F)ccc12; 12

**Q:** Entry under review: "O=c1cc(Cn2c(C3CC(F)(F)C3)nc3nccnc32)c2cccc(F)c2[nH]1" . Reported clearance?
**A:** 6.2

**Q:** What do we get for "O=c1cc(Cn2c(C3CCC3)nc3nccnc32)c2ccc(F)c(F)c2[nH]1" ?
**A:** 4.5

**Q:** What do we get for "CC(C)Cc1nc2nccnc2n1Cc1cc(=O)[nH]c2c(F)c(F)ccc12" ?
**A:** 6.1

**Q:** What do we get for "Cc1ncsc1-c1nc2ccccc2n1Cc1cc(=O)[nH]c2c(F)c(F)ccc12" ?
**A:** 12

**Q:** What do we get for "CC(C)c1nc2ccccc2n1Cc1cc(=O)[nH]c2c(F)c(F)ccc12" ?
**A:** 5.9

**Q:** What do we get for "O=c1cc(Cn2c(C3CCC3)nc3nccnc32)c2cccc(F)c2[nH]1" ?
**A:** 5.9

====

- Species on record: Homo sapiens
- Method summary: Ratio of IC50 for human nNOS to EC50 for human iNOS
Measured endpoint: Ratio EC50
Could you keep your reply to the number by itself?

Answered examples (5):
Cc1ncsc1-c1nc2ccccc2n1Cc1cc(=O)[nH]c2c(F)cccc12; 1.2
CC(C)c1nc2ccccc2n1Cc1cc(=O)[nH]c2c(F)c(F)ccc12; 0.8
CC(C)Cc1nc2nccnc2n1Cc1cc(=O)[nH]c2c(F)c(F)ccc12; 3.4
CN(C)c1ccnc2c1nc(C1CCC1)n2Cc1cc(=O)[nH]c2c(F)c(F)ccc12; 5.9
CCCc1nc2ccccc2n1Cc1cc(=O)[nH]c2c(F)c(F)ccc12; 0.9

**Q:** Entry under review: "O=c1cc(Cn2c(C3CCC3)nc3ccncc32)c2ccc(F)c(F)c2[nH]1" . Reported Ratio EC50?
**A:** 1.6

**Q:** What do we get for "O=c1cc(Cn2c(CC3CCC3)nc3ccccc32)c2ccc(F)c(F)c2[nH]1" ?
**A:** 1.2

**Q:** What do we get for "O=c1cc(Cn2c(CC3CC3)nc3ccccc32)c2ccc(F)c(F)c2[nH]1" ?
**A:** 1.6

====

- Method summary: Volume of distribution at steady state in rhesus monkey at 3 mg/kg, iv and 10 mg/kg, po
- Format: ADME, organism-based, Macaca mulatta
- Study conditions: in vivo, read-out: Vdss
Measured Vd accompanies every entry in the list below.
Provide a numeric answer, followed by its unit.

Cl.O=c1cc(Cn2c(C3CC(F)(F)C3)nc3nccnc32)c2cccc(F)c2[nH]1; 1.8 L/kg
Cl.O=c1cc(Cn2c(C3CCC3)nc3nccnc32)c2ccc(F)c(F)c2[nH]1; 3 L/kg
CC(C)Cc1nc2nccnc2n1Cc1cc(=O)[nH]c2c(F)c(F)ccc12.Cl; 19 L/kg

Alright, here's another molecule for you.
**Q:** Entry under review: "Cl.O=c1cc(Cn2c(C3CCC3)nc3nccnc32)c2cccc(F)c2[nH]1" . Reported Vd?
**A:** 1.2 L/kg

====

- Measured on: Cytochrome P450 3A4 (Homo sapiens, UniProt P08684)
- Sequence (P08684 whole entry): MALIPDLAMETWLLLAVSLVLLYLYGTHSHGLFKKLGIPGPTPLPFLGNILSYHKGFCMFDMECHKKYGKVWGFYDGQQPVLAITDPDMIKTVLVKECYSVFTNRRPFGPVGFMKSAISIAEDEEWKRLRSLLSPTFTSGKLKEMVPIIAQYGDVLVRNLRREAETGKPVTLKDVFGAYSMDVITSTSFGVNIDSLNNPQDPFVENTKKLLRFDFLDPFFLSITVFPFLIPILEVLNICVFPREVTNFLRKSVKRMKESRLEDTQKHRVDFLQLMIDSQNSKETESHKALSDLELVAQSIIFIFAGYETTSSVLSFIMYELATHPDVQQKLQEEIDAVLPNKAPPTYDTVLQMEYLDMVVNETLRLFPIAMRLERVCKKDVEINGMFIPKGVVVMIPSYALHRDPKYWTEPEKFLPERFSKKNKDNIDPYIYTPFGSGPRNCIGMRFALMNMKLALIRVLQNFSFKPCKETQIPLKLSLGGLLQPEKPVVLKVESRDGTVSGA
- Method summary: Inhibition of human CYP3A4
pEC50: −log10 of the molar value.
Measured endpoint: pEC50

Answered examples (2):
O=c1cc(Cn2c(C3CCC3)nc3nccnc32)c2ccc(F)c(F)c2[nH]1; < 4.00
O=c1cc(Cn2c(C3CCC3)nc3nccnc32)c2cccc(F)c2[nH]1; < 4.22

**Q:** Entry under review: "CC(C)Cc1nc2nccnc2n1Cc1cc(=O)[nH]c2c(F)c(F)ccc12" . Reported pEC50?
**A:** < 4.22

**Q:** What do we get for "O=c1cc(Cn2c(C3CC(F)(F)C3)nc3nccnc32)c2cccc(F)c2[nH]1" ?
**A:** 4.64

====

- Method summary: AUC in mouse at 3 mg/kg, iv and 10 mg/kg, po
- Type: ADME, organism-based
- Study conditions: plasma
Measured endpoint: AUC (ng·h/mL)
Give just the numeric value; ng·h/mL need not be written.

Answered examples (4):
O=c1cc(Cn2c(C3CCC3)nc3ccccc32)c2ccc(F)c(F)c2[nH]1; 10000
CN(C)c1ccnc2c1nc(C1CCC1)n2Cc1cc(=O)[nH]c2c(F)c(F)ccc12; 700
O=c1cc(Cn2c(C3CC(F)(F)C3)nc3nccnc32)c2cccc(F)c2[nH]1; 15000
CC(C)Cc1nc2nccnc2n1Cc1cc(=O)[nH]c2c(F)c(F)ccc12; 11000

Alright, here's another compound for you.
**Q:** Entry under review: "CC(C)Cc1nc2ccccc2n1Cc1cc(=O)[nH]c2c(F)c(F)ccc12" . Reported AUC?
**A:** 13300

====

- Organism: Homo sapiens
- Method summary: Ratio of IC50 for human eNOS to EC50 for human iNOS
Measured endpoint: Ratio EC50
Could you keep your reply to the number by itself?

Answered examples (2):
CC(C)c1nc2nccnc2n1Cc1cc(=O)[nH]c2c(F)c(F)ccc12; 15
O=c1cc(Cn2c(C3CCC3)nc3nccnc32)c2ccc(F)c(F)c2[nH]1; 180

**Q:** Entry under review: "O=c1cc(Cn2c(C3CCC3)nc3ccccc32)c2ccc(F)c(F)c2[nH]1" . Reported Ratio EC50?
**A:** 23

**Q:** What do we get for "Cc1ncsc1-c1nc2ccccc2n1Cc1cc(=O)[nH]c2c(F)c(F)ccc12" ?
**A:** 3.8

Origin of measurements: ChEMBL document CHEMBL1800057
